experiment: Quantitative High-Throughput drug screen in 47 multiple myeloma cell lines against the NCATS MIPE library collection: H1112_PLB cell viability assay (AID 1918967; also: nearly all actives have a fitted effect of over 30% in size); settings: H1112 myeloma cells viability, ATP luminescence, 48 h; series mostly up to 45.8 µM
Results filed as inconclusive are left out. The source made the active and inactive calls. Calls follow the shape of the dose curve; as a rule, active = well fitted cell-killing curve with a large enough effect; inconclusive = small, poorly fitted or top-dose-only effect, or effect the other way; inactive = no such curve, though single readings can be large or run the other way.
Outcomes: t for active, f for inactive

{"Compound": "COc1ccc(C2=N[C@H](c3ccc(Cl)cc3)[C@H](c3ccc(Cl)cc3)N2C(=O)N2CCNC(=O)C2)c(OC(C)C)c1", "Class": "t"}
{"Compound": "NC(N)=NC(=O)c1nc(Cl)c(N)nc1N", "Class": "t"}
{"Compound": "O=C1CCC(N2C(=O)c3ccccc3C2=O)C(=O)N1 (stereo not given)", "Class": "f"}
{"Compound": "c1ccc(-c2nn3c(c2-c2ccnc4cc(OCCN5CCOCC5)ccc24)CCC3)nc1", "Class": "t"}
{"Compound": "C[C@@H]1CN(Cc2ccc(F)cc2)[C@@H](C)CN1C(=O)c1cc2c(C(=O)C(=O)N(C)C)cn(C)c2cc1Cl", "Class": "t"}

====

biological target: Beta-2 adrenergic receptor (Homo sapiens) (UniProt P07550); assay: qHTS validation assay of beta-arrestin-biased ligands of beta2-adrenergic receptor (AID 485366); settings: cell-based beta-arrestin recruitment to ADRB2, qHTS; series mostly up to 46.1 µM
Sequence (P07550 whole entry, looked up): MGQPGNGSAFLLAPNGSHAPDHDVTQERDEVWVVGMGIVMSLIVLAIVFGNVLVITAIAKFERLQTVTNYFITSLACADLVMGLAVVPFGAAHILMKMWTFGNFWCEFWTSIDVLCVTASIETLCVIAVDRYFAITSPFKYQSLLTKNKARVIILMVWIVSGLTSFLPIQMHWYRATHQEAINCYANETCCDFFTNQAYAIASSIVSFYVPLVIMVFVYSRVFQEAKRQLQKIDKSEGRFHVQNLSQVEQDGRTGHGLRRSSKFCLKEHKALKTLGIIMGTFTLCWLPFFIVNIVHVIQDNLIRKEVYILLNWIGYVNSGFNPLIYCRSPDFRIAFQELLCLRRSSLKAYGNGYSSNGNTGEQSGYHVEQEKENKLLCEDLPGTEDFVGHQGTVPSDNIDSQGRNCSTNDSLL
Calls of active or inactive are those of the source. The call rests on the fitted dose curve; in most records, active means well fitted curve in the direction sought with a large enough effect; inconclusive means small, poorly fitted or top-dose-only effect, or effect the other way, or another doubt; inactive means no such curve, though single readings can be large or run the other way.

{"Structure as smiles": "O=c1n(CCCN2CCN(c3cccc(Cl)c3)CC2)nc2ccccn12", "outcome": "inactive"}
{"Structure as smiles": "Cc1ccc(N(CC2=NCCN2)c2cccc(O)c2)cc1", "outcome": "inactive"}
{"Structure as smiles": "Cc1[nH]c(=O)c(C#N)cc1-c1ccncc1", "outcome": "inactive"}

====

system: CP217; test: qHTS profiling for inhibitors of Plasmodium falciparum proliferation (AID 504749); also: nearly all actives have a fitted effect of over 60% in size; settings: P. falciparum in erythrocytes, SYBR Green DNA, 72 h; series mostly up to 28.7 µM
Inconclusive results are not listed. The source made the active and inactive calls. The call rests on the fitted dose curve; in most records, active means well fitted inhibition curve with a large enough effect; inconclusive means small, poorly fitted or top-dose-only effect; inactive means flat fitted curve, though single readings scatter.
Outcomes: YES (active), NO (inactive)

{"Molecule": "CC(=O)Oc1ccccc1C(=O)O", "Class": "NO"}
{"Molecule": "CC(C[N+](C)(C)C)OC(N)=O (stereo not drawn)", "Class": "NO"}
{"Molecule": "CCCc1nn(C)c2c(=O)[nH]c(-c3cc(S(=O)(=O)N4CCN(C)CC4)ccc3OCC)nc12", "Class": "NO"}
{"Molecule": "CCc1ccc(CCOc2ccc(CC3SC(=O)NC3=O)cc2)nc1 (stereo not drawn)", "Class": "NO"}
{"Molecule": "O=NN(CCCl)C(=O)NCCCl", "Class": "NO"}
{"Molecule": "N#Cc1ccc(C(c2ccc(C#N)cc2)n2cncn2)cc1", "Class": "NO"}
{"Molecule": "O=C1CCC(N2C(=O)c3ccccc3C2=O)C(=O)N1 (stereo not drawn)", "Class": "NO"}
{"Molecule": "CC(C)C[C@H](NC(=O)[C@@H](O)[C@H](N)Cc1ccccc1)C(=O)O", "Class": "YES"}
{"Molecule": "Oc1ccc(C2CNCCc3c2cc(O)c(O)c3Cl)cc1 (stereo not drawn)", "Class": "NO"}
{"Molecule": "N[C@@H]1CONC1=O", "Class": "NO"}
{"Molecule": "N=c1nc(N2CCCCC2)cc(N)n1O", "Class": "NO"}
{"Molecule": "Cc1cn[nH]c1", "Class": "NO"}
{"Molecule": "NCCc1ccc(O)c(O)c1", "Class": "NO"}
